# MEASUREMENT DESCRIPTION: Ratio of drug uptake from rat brain to plasma at 1 mg/kg, iv after 1 hr
# Assay type: ADME, organism-based
# Parameters: dose 1 mg/kg, route intravenous
# APPLIED CONDITIONS: read-out: BPR
REPORTED ENDPOINT: Kp at 1 h

# LINE NOTATION, Kp at 1 h
data = [
    ("Cc1ccc(-n2nccn2)c(C(=O)N2CC3(CC3)C[C@H]2CNc2cccc(C)n2)c1", 0.2),
    ("Cc1ccc(-c2ccccc2)c(C(=O)N2CC3(CC3)C[C@H]2CNc2ccc(C(F)(F)F)cn2)n1", 0.4),
    ("Cc1ccc(-c2ncccn2)c(C(=O)N2CC3(CC3)C[C@H]2CNc2ccc(C(F)(F)F)cn2)n1", 0.5),
]

a = Cc1nc(C(=O)N2CC3(CC3)C[C@H]2CNc2ccc(C(F)(F)F)cn2)c(-c2ccccc2)s1
b = Cc1cc(C)nc(NC[C@@H]2CC3(CC3)CN2C(=O)c2nc(C)sc2-c2ccccc2)n1
c = Cc1ccc(-c2ncccn2)c(C(=O)N2CC3(CC3)C[C@H]2CNc2ccc(Cl)cn2)c1
Hello, I need these entries ordered by Kp at 1 h, highest reading first. Thanks! API: response body holds the labels in the requested order. a, b, c
(a: 0.6, b: 0.1, c: 0.03)

---

# MEASUREMENT TARGET: Orexin/Hypocretin receptor type 1 (Homo sapiens)
# MEASUREMENT DESCRIPTION: Antagonist activity at human recombinant OX1 receptor expressed in CHO cells assessed as OXA-stimulated intracellular calcium mobilization by FLIPR assay
# Assay type: functional, cell-based
REPORTED ENDPOINT: pKb

Answered examples (6):
# LINE NOTATION, MEASUREMENT TARGET, pKb
records = [
    ("Cc1ccc(-c2ncccn2)c(C(=O)N2CC3(CC3)C[C@H]2CNc2cc(C(F)(F)F)ccn2)c1", "Orexin/Hypocretin receptor type 1 (Homo sapiens)", 7.3),
    ("Cc1nc(C(=O)N2CC3(CC3)C[C@H]2CNc2ccc(C(F)(F)F)cn2)c(-c2ccccc2)s1", "Orexin/Hypocretin receptor type 1 (Homo sapiens)", 8.4),
    ("O=C(c1cc(Cl)ccc1-c1ncccn1)N1CC2(CC2)C[C@H]1CNc1ccc(C(F)(F)F)cn1", "Orexin/Hypocretin receptor type 1 (Homo sapiens)", 8.1),
    ("Cc1ccc(-c2ncccn2)c(C(=O)N2CC3(CC3)C[C@H]2CNc2ccc(Cl)cn2)c1", "Orexin/Hypocretin receptor type 1 (Homo sapiens)", 8.2),
    ("Cc1nc(C(=O)N2CC3(CC3)C[C@H]2CNc2ccc(Cl)cn2)c(-c2ccccc2)s1", "Orexin/Hypocretin receptor type 1 (Homo sapiens)", 8.3),
    ("Cc1nc(C(=O)N2CCC3(CC3)C[C@H]2CNc2ccc(C(F)(F)F)cn2)c(-c2ccccc2)s1", "Orexin/Hypocretin receptor type 1 (Homo sapiens)", 7.7),
]

A = Cc1cnn(-c2ccc(C)nc2C(=O)N2CC3(CC3)C[C@H]2CNc2ccc(C(F)(F)F)cn2)c1
B = Cc1ccnc(NC[C@@H]2CC3(CC3)CN2C(=O)c2nc(C)sc2-c2ccccc2)n1
Select one. Lower pKb: A or B To answer, give the label that identifies your chosen option. B

---

# MEASUREMENT TARGET: Orexin receptor type 2 (Homo sapiens)
# MEASUREMENT DESCRIPTION: Antagonist activity at human recombinant OX2 receptor expressed in HEK293 cells assessed as OXB-stimulated intracellular calcium mobilization by FLIPR assay
# Type: functional, cell-based
REPORTED ENDPOINT: pKb

# LINE NOTATION, pKb
measured = [
    ("Cc1cccc(NC[C@@H]2CC3(CC3)CN2C(=O)c2nc(C)sc2-c2ccccc2)n1", 7.6),
    ("Cc1nc(C(=O)N2CC3(CC3)C[C@H]2CNc2cc(C(F)(F)F)ccn2)c(-c2ccccc2)s1", 8.5),
]

---

# MEASUREMENT TARGET: CYP3A4 (Homo sapiens)
# MEASUREMENT DESCRIPTION: Inhibition of human recombinant CYP3A4 using DBF as substrate at 3 uM by fluorimetric assay
# Format: ADME
# APPLIED CONDITIONS: recombinant CYP3A4, probe DBF
// reported inhibition at 3 µM for each item listed

# LINE NOTATION, MEASUREMENT TARGET, inhibition at 3 µM
records = [
    ("Cc1ccc(-c2ccccc2)c(C(=O)N2CC3(CC3)C[C@H]2CNc2ccc(C(F)(F)F)cn2)n1", "CYP3A4 (Homo sapiens)", "< 20%"),
]

Query the reported inhibition at 3 µM for CYP3A4 (Homo sapiens); item: Cc1ccc(OCc2ccccc2)c(C(=O)N2CC3(CC3)C[C@H]2CNc2ccc(C(F)(F)F)cn2)n1 < 71%

Param item: Cc1nc(C(=O)N2CC3(CC3)C[C@H]2CNc2ccc(C(F)(F)F)cn2)c(-c2ccccc2)s1 < 20%

Param item: O=C(c1ncccc1-c1ncccn1)N1CC2(CC2)C[C@H]1CNc1ccc(C(F)(F)F)cn1 < 47%

---

# MEASUREMENT TARGET: CYP3A4 (Homo sapiens, UniProt P08684)
# Sequence (P08684 whole entry): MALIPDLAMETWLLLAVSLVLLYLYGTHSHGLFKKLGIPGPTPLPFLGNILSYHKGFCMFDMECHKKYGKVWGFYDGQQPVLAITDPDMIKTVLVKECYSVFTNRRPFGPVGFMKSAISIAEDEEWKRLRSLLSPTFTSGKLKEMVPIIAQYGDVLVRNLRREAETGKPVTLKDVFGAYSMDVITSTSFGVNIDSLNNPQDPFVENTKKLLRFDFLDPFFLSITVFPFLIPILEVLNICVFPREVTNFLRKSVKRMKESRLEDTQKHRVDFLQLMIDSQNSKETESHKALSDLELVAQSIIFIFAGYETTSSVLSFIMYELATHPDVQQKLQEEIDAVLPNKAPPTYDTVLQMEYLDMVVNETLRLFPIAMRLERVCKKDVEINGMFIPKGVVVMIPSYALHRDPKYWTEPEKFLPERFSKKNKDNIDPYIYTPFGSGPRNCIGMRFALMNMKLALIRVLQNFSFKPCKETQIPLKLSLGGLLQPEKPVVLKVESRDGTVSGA
# MEASUREMENT DESCRIPTION: Inhibition of human recombinant CYP3A4 using DBF as substrate at 1 uM by fluorimetric assay
# Format: ADME
# APPLIED CONDITIONS: recombinant CYP3A4, probe DBF
// reported inhibition at 1 µM for each item listed

Answered examples (4):
# LINE NOTATION, MEASUREMENT TARGET, inhibition at 1 µM
measured = [
    ("O=C(c1cc(Cl)ccc1-c1ncccn1)N1CC2(CC2)C[C@H]1CNc1cc(C(F)(F)F)ccn1", "CYP3A4 (Homo sapiens, UniProt P08684)", "< 57%"),
    ("Cc1nc(C(=O)N2CC3(CC3)C[C@H]2CNc2ccc(C(F)(F)F)cn2)c(-c2ccccc2)s1", "CYP3A4 (Homo sapiens, UniProt P08684)", "< 20%"),
    ("Cc1ccc(-c2ncccn2)c(C(=O)N2CC3(CC3)C[C@H]2CNc2cc(C(F)(F)F)ccn2)n1", "CYP3A4 (Homo sapiens, UniProt P08684)", "< 39%"),
    ("Cc1cc(C(F)(F)F)cc(NC[C@@H]2CC3(CC3)CN2C(=O)c2nc(C)sc2-c2ccccc2)n1", "CYP3A4 (Homo sapiens, UniProt P08684)", "< 69%"),
]

Param item = Cc1ccc(-c2ncccn2)c(C(=O)N2CC3(CC3)C[C@H]2CNc2cc(C#N)ccn2)n1 ; retrieve measured inhibition at 1 µM. < 17%

---

# MEASUREMENT TARGET: Orexin receptor type 2 (Homo sapiens)
# MEASUREMENT DESCRIPTION: Antagonist activity at human recombinant OX2 receptor expressed in HEK293 cells assessed as OXB-stimulated intracellular calcium mobilization by FLIPR assay
# Type: functional, cell-based
REPORTED ENDPOINT: pKb

# LINE NOTATION, pKb
rows = [
    ("N#Cc1ccc(-c2ncccn2)c(C(=O)N2CC3(CC3)C[C@H]2CNc2ccc(C(F)(F)F)cn2)c1", 8.1),
    ("O=C(c1nc(OC(F)(F)F)ccc1-c1ncccn1)N1CC2(CC2)C[C@H]1CNc1ccc(C(F)(F)F)cn1", 6.9),
    ("Cc1ccc(-c2ncccn2)c(C(=O)N2CC3(CC3)C[C@H]2CNc2cc(C(F)(F)F)ccn2)c1", 7.8),
    ("O=C(c1cc(Cl)ccc1-c1ncccn1)N1CC2(CC2)C[C@H]1CNc1cc(C(F)(F)F)ccn1", 7.1),
    ("Cc1ccc(-c2ncccn2)c(C(=O)N2CC3(CC3)C[C@H]2CNc2ccc(C(F)(F)F)cn2)n1", 7.5),
    ("Cc1cc(C)nc(NC[C@@H]2CC3(CC3)CN2C(=O)c2nc(C)sc2-c2ccccc2)n1", 8.6),
    ("Cc1cc(C(F)(F)F)cc(NC[C@@H]2CC3(CC3)CN2C(=O)c2nc(C)sc2-c2ccccc2)n1", 8.6),
    ("Cc1ccc(OCc2ccccc2)c(C(=O)N2CC3(CC3)C[C@H]2CNc2ccc(C(F)(F)F)cn2)n1", 8.6),
    ("Cc1ccc(-c2nccs2)c(C(=O)N2CC3(CC3)C[C@H]2CNc2ccc(C(F)(F)F)cn2)n1", 8),
    ("O=C(c1cc(Cl)ccc1-c1ncccn1)N1CC2(CC2)C[C@H]1CNc1ccc(C(F)(F)F)cn1", 7.2),
    ("O=C(c1nc(C(F)(F)F)ccc1-c1ncccn1)N1CC2(CC2)C[C@H]1CNc1ccc(C(F)(F)F)cn1", 5),
    ("Cc1nc(C(=O)N2CC3(CC3)C[C@H]2CNc2ccc(C(F)(F)F)cn2)c(-c2ccccc2)s1", 7.7),
    ("Cc1ccc(-c2ncccn2)c(C(=O)N2CC3(CC3)C[C@H]2CNc2ccc(C(F)(F)F)cn2)c1", 6.6),
]
